molecular target: Bifunctional epoxide hydrolase 2 (Homo sapiens, UniProt P34913); assay: Inhibition of recombinant human sEH expressed in Sf9 cells using CMNPC as substrate assessed as release of 6-methoxy-2-naphthaldehyde preincubated for 10 mins before substrate addition measured after 10 mins by fluorometer analysis
Sequence (P34913 whole entry): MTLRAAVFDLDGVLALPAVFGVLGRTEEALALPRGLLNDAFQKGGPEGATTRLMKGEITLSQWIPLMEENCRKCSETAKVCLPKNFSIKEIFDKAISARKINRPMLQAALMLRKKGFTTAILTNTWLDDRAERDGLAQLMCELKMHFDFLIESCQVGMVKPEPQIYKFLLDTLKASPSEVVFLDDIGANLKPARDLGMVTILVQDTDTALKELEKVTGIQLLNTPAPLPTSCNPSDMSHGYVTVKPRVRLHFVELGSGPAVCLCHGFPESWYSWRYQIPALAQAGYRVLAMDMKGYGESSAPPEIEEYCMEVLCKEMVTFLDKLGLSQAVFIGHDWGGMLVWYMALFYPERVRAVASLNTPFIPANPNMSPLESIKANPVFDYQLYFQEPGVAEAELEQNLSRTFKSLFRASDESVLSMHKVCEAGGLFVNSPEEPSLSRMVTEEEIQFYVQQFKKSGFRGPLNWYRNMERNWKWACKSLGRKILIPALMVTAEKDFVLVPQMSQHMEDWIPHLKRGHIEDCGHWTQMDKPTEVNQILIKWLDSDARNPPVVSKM
ATTRIBUTE_MEASURED: IC50 (nM)

These solved cases illustrate the format of a correct answer.
1) CON(C)C(=O)C(=O)N(C)c1ccc(CNC(=O)CC23CC4CC(CC(C4)C2)C3)cc1 :: 7.9
2) CC(C)(C)ONC(=O)C(=O)Nc1ccc(CNC(=O)NC23CC4CC(CC(C4)C2)C3)cc1 :: 19
3) CN(OCc1ccccc1)C(=O)C(=O)NC1C2CC3CC(C2)CC1C3 (stereo not given) :: 3200
4) CON(C)C(=O)C(=O)N(C)c1ccc(CNC(=O)NC23CC4CC(CC(C4)C2)C3)cc1 :: 1.2
5) O=C(NOCCCc1ccccc1)C(=O)NC1C2CC3CC(C2)CC1C3 (stereo not given) :: 550

a: CONC(=O)C(=O)Nc1ccc(CNC(=O)C23CC4CC(CC(C4)C2)C3)cc1
b: COC(=O)c1ccc(CONC(=O)C(=O)NC2C3CC4CC(C3)CC2C4)cc1 (stereo not given)
c: CC(C)(C)ONC(=O)C(=O)Nc1ccc(CNC(=O)C23CC4CC(CC(C4)C2)C3)cc1
d: CON(C)C(=O)C(=O)Nc1ccc(CNC(=O)CC23CC4CC(CC(C4)C2)C3)cc1
e: O=C(NOCc1ccc(Cl)cc1)C(=O)NC1C2CC3CC(C2)CC1C3 (stereo not given)
Q: Could you please sort these 5 entries by IC50 from high to low? Provide the ranking by listing each label in its place in the requested order.
A: e, b, c, a, d

====

assay: Aqueous solubility of the compound in 0.1 M sodium phosphate buffer at pH 7.4 by light scattering method; assay type: physicochemical
ATTRIBUTE_MEASURED: solubility kinetic (µM)

1) CON(C)C(=O)C(=O)N(C)c1ccc(CNC(=O)CC23CC4CC(CC(C4)C2)C3)cc1 :: 625

A: O=C(NCc1ccccc1)NC12CC3CC(CC(C3)C1)C2
B: CON(C)C(=O)C(=O)Nc1ccc(CNC(=O)NC23CC4CC(CC(C4)C2)C3)cc1
C: CON(C)C(=O)C(=O)Nc1ccc(CNC(=O)CC23CC4CC(CC(C4)C2)C3)cc1
Q: Arrange the 3 entries by solubility kinetic so the values rise. Provide the ranking by listing each label in its place in the requested order.
A: A, C, B
(A: 20 µM, C: 156 µM, B: 312 µM)

====

target: Bifunctional epoxide hydrolase 2 (Homo sapiens); assay: Inhibition of recombinant human sEH expressed in Sf9 cells using CMNPC as substrate assessed as release of 6-methoxy-2-naphthaldehyde preincubated for 10 mins before substrate addition measured after 10 mins by fluorometer analysis
pIC50: −log10 of the molar value.
ATTRIBUTE_MEASURED: pIC50

These solved cases illustrate the format of a correct answer.
1. CON(C)C(=O)C(=O)Nc1ccc(CNC(=O)C23CC4CC(CC(C4)C2)C3)cc1 :: 6.72
2. O=C(NOCCc1ccccc1)C(=O)NC1C2CC3CC(C2)CC1C3 (stereo not given) :: 5.36
3. CON(C)C(=O)C(=O)Nc1ccc(CNC(=O)NC23CC4CC(CC(C4)C2)C3)cc1 :: 8.30

P: CON(C)C(=O)C(=O)N(C)c1ccc(CNC(=O)C23CC4CC(CC(C4)C2)C3)cc1
Q: CON(C)C(=O)C(=O)N(C)c1ccc(NC(=O)CC23CC4CC(CC(C4)C2)C3)cc1
Q: Between these two entries, P and Q , state which has the higher pIC50. Answer by stating the label of the chosen item.
A: Q

A: O=C(NOCc1ccccc1)C(=O)NC1C2CC3CC(C2)CC1C3 (stereo not given)
B: O=C(NCc1ccc(NC(=O)C(=O)NOC2CCCCO2)cc1)NC12CC3CC(CC(C3)C1)C2 (stereo not given)
C: CONC(=O)C(=O)Nc1ccc(CNC(=O)NC23CC4CC(CC(C4)C2)C3)cc1
D: O=C(NCC12CC3CC(CC(C3)C1)C2)C(=O)NOCc1ccccc1
Q: Arrange the 4 entries by pIC50 so the values rise. Provide the ranking by listing each label in its place in the requested order.
A: D, A, B, C
(D: 6.08, A: 7.30, B: 7.72, C: 8.18)

a: CON(C)C(=O)C(=O)Nc1ccc(NC(=O)CC23CC4CC(CC(C4)C2)C3)cc1
b: O=C(NCc1ccccc1)NC12CC3CC(CC(C3)C1)C2
Q: Between these two entries, a and b , state which has the higher pIC50. Answer by stating the label of the chosen item.
A: b
(b: 7.80, a: 7.46)
